Where do these numbers come from? They come from ChEMBL document CHEMBL1201862.

- System: MOLT-4
- Experiment Description: NCI tumour cell line growth inhibition, 48 h
Active and inactive are the calls of the source. No stated cut-off is given here; in the data, active = GI50 up to about 1.1 µM and inactive = higher.
Classes to choose from: active, inactive

Sample answers from the record:
| Compound | Assigned Class |
| --- | --- |
| COC(=O)c1c(-c2ccc(Cl)cc2)cc2c3ccccc3n(C)c2c1C(=O)OC | inactive |
| COc1ccc2cc3n(c(=O)c2c1)CCc1c-3cc(OC)c(OC)c1OC | inactive |
| CCOC(=O)/C=C1\c2ccccc2C(=O)N1CC(=O)OCC | inactive |
| COc1cccc2c1C(=O)c1c(O)c3c(c(O)c1C2=O)C[C@@](O)(C(=O)CO)CC3OC1CC(NCCCCC(OC(C)=O)OC(C)=O)C(O)C(C)O1 (some centres undefined) | active |
| O=C1c2ccccc2-c2c1c1ccccc1c(=O)n2CCO | inactive |

Problem: Fill in: this test's call for CC(=O)Nc1c2sscc-2n(C)c1=O is ___
Solution: active

Problem: Fill in: this test's call for NC(CCCCP(=O)(O)O)C(=O)O (centres undefined) is ___
Solution: inactive

Problem: Fill in: this test's call for COC(=O)C1=C(C)N2[C@H](C(=O)O)CO[C@@]2(C)[C@H](C(=O)OC)[C@H]1c1cccc([N+](=O)[O-])c1 is ___
Solution: inactive

Problem: Fill in: this test's call for CO/C1=C\C(C)=C\C(C)C(O)C(C)C/C(C)=C/C=C/C(OC)C(C(C)C(O)C(C)C2(O)CC(O)C(C)C(C(C)C)O2)OC1=O (centres undefined) is ___
Solution: active
